# Test system: LOX IMVI melanoma
# experimental_details: NCI-60 one-dose screen, 48 h (100 = growth as untreated, 0 = no growth, -100 = all killed)
# experimental_parameters: 10 µM unless noted
About 83,000 compounds went through this panel and 20% of them were active in at least one assay; those are over-represented in the sample as a whole.
This section presents compounds with their documented growth values.
Express the result in % but write the number alone.

Example results:
- compound: "C=CCn1c(SCC(=O)Nc2ccc(C(=O)/C=C/c3ccc(OC)cc3)cc2)nnc1-c1ccccc1"
  uom: "%"
  growth: 87.2
- compound: "Cc1cscc(C)c1=S"
  uom: "%"
  growth: 70.4
- compound: "Cc1nc2sc(C(=O)Nc3cccc(Cl)c3)c(N)c2cc1C(O)c1ccccc1 (configuration not stated)"
  uom: "%"
  growth: 45.3
- compound: "Cn1c(O)c(C(/C=C/c2ccccc2)=Nc2ccccc2N)c(=O)n(C)c1=O"
  uom: "%"
  growth: 90.3
- compound: "CCOC(=O)n1cc(-c2nonc2-c2cn(C)c3ccccc23)c2ccccc21"
  uom: "%"
  growth: 41.7

IN: Specify measured growth for "CCOC(=O)C/C(=N\Nc1cc(=O)[nH]c2ccc(Cl)cc12)C(=O)OCC" .
OUT: 95.7

IN: Could you please provide reported growth for CCCCCCC(CCCC)COC(=O)c1ccc(Cl)cc1 (configuration not stated) ? Thanks!
OUT: 103

IN: Note down growth recorded for "Cn1cc(-c2ccc3cc(-c4ccc(CC(=O)Nc5cc(C(C)(C)C)on5)cc4)cnc3c2)cn1"
OUT: 30.4

IN: In one line, give reported growth of the entry "CC(=O)c1c(Nc2ccc(F)c(F)c2F)[nH]c2c(F)cc(F)cc2c1=O" .
OUT: 5.66

IN: Query growth for "N#Cc1c(-c2ccccc2)nc2c(c(-c3ccccc3)nn2-c2ccccc2)c1-c1ccc(N2CCOCC2)cc1"
OUT: 51.6

IN: Fill in reported growth for this entry: "FC(F)(F)c1[nH]ncc1-c1nc2c(N3CCCCC3)cc3[nH]ncc3c2c2c1CCCC2"
OUT: -68.9

IN: Could you please provide reported growth for "COCCCOc1cc(C[C@@H](C[C@H](N)[C@@H](O)C[C@H](C(=O)NCC(C)(C)C(N)=O)C(C)C)C(C)C)ccc1OC" ? Thanks!
OUT: 95

----------
The reader will find reported growth values listed item by item below.
# Test system: NCI-H226 lung
# experimental_details: NCI-60 one-dose screen, 48 h (100 = growth as untreated, 0 = no growth, -100 = all killed)
# experimental_parameters: 10 µM unless noted
This is part of a sample that, as a whole, favours compounds with a hit. Of some 83,000 tested, about 20% had one in any assay. Activity calls are given as the source filed them. The calls were made as follows: active = growth percent below 10; inactive = the rest.

- chemical_smiles: "CCNC(=O)Oc1ccc(/C(=C(/C)Cc2ccc(OC)cc2)c2ccc(OCCN3CCCCCC3)cc2)cc1"
  growth: "96.2% (inactive)"
- chemical_smiles: "CC(C)CSc1oc(-c2ccccc2)nc1S(=O)(=O)c1ccccc1"
  growth: "75.7% (inactive)"
- chemical_smiles: "Cc1ccccc1OCC(O)COc1ccccc1C"
  growth: "97.9% (inactive)"
- chemical_smiles: "C(/C=C/c1ccccc1)=Nc1ccc(CCc2ccc(N=C/C=C/c3ccccc3)cc2)cc1"
  growth: "95.9% (inactive)"
- chemical_smiles: "O=C(/C=C/c1ccccc1)Nc1ncc(Cc2ccccc2)s1"
  growth: "60.3% (inactive)"

We now examine a further compound.
IN: Consider the compound "CCCCCCCCn1ccc2cc(NC(=O)Cn3cc(CN4CCCCCC4)nn3)ccc21" . State its measured growth.
OUT: 38.6% (inactive)

----------
# System: NCI-H23 lung
# experimental_details: NCI-60 one-dose screen, 48 h
# experimental_parameters: 10 µM unless noted
Compounds without any hit were thinned out: in the full panel of roughly 83,000, 20% have a hit. Active and inactive are the calls of the source. The calls were made as follows: active = growth percent below 10; inactive = the rest.
Return exactly one item of 1 for active, -1 for inactive

Use the examples below as a reference point.
- compound: "CCN1C(=O)N(CC)C2C1NN=c1s/c(=C\\c3cc4ccccc4[nH]3)c(=O)n12 (centres undefined)"
  assigned_class: -1
- compound: "Cc1cccc(NC(=O)CSc2nc3ccc([N+](=O)[O-])cc3[nH]2)c1"
  assigned_class: -1
- compound: "COc1cc2c3c(n(CCCCNCCCn4c5c(c6cc(OC)c(OC)cc6c4=O)C(=O)c4cc6c(cc4-5)OCO6)c(=O)c2cc1OC)-c1cc2c(cc1C3=O)OCO2"
  assigned_class: -1
- compound: "N=C(N)c1ccc(-c2ccc(-c3ccc(Cl)cc3)o2)o1"
  assigned_class: -1
- compound: "Cc1cscc(C)c1=S"
  assigned_class: -1
- compound: "CCOC(=O)c1c2c(n3c1NCC3)-c1ccccc1C2=O"
  assigned_class: -1

IN: Outcome logged for O=C1OCC2=C1C(c1cccc(C(F)(F)F)c1)c1cc3c(cc1N2CCO)OCO3 (centres undefined) in this assay:
OUT: -1

IN: Could you kindly confirm the outcome this assay logged for "Cc1nc2sc(C(=O)Nc3ccccc3)c(N)c2cc1C(=O)/C=C/c1ccccc1" ?
OUT: -1

IN: Please let me know the test result on file for "Cn1c(=O)c2c(c3ccccc31)OC(N)=C(C#N)C21C(=O)c2ccccc2C1=O" .
OUT: -1

IN: Entry "CCN(CC)c1ccc(/C=C\c2cc(C)c3cc(C)ccc3n2)cc1" : call = ?
OUT: -1

IN: Which outcome was entered for the compound "FC(F)(F)c1[nH]ncc1-c1nc2c(N3CCCCC3)cc3[nH]ncc3c2c2c1CCCC2" in this test?
OUT: 1

IN: // return assay outcome for "CCOC(=O)n1cc(-c2nonc2-c2cn(C)c3ccccc23)c2ccccc21"
OUT: -1

IN: Returns: the outcome recorded for O=C(CN1C(=O)NC2NC(=O)NC21)N/N=C/c1ccc(Cl)cc1Cl (centres undefined) in this assay.
OUT: -1

IN: Which outcome did this test record for the compound Nc1n[nH]c2ccc([C@@H]3Nc4cc5[nH]ncc5cc4[C@H]4C5CCC(C5)[C@@H]34)cc12 (some centres undefined) ?
OUT: -1

IN: Dear colleague, could you share the recorded outcome for "CCCCSCC(=O)c1ccccc1" when you have a moment?
OUT: -1

IN: Assay outcome for COc1ccc(C2CC(c3ccc4c(c3)OCO4)=Nc3c(N)ncnc3N2)cc1 (centres undefined) : what was it?
OUT: -1

IN: What outcome does the record of this test show for "NC(=O)c1ccc(NC(=O)c2oc3ccccc3c2-c2cnn(-c3ccccc3)c2)cc1" ?
OUT: 1

IN: Assay result, entry "CCOC(=O)C/C(=N\Nc1cc(=O)[nH]c2ccc(Cl)cc12)C(=O)OCC" — outcome?
OUT: -1

IN: Status in this test for CCOC(=O)C1=C(c2ccccc2)N=c2s/c(=C/c3ccc(Br)cc3)c(=O)n2C1c1ccc(O)cc1 (centres undefined) ?
OUT: -1

----------
# Test system: MDA-MB-231 breast
# experimental_details: NCI-60 one-dose screen, 48 h
# experimental_parameters: 10 µM unless noted
This is part of a sample that, as a whole, favours compounds with a hit. Of some 83,000 tested, about 20% had one in any assay. Active and inactive are the calls of the source. Rule for the calls: active = growth percent below 10; inactive = the rest.
Allowed answers: True for active, False for inactive

Please review the entries below; each comes with its answer.
- compound: "CCNc1nc(-c2ccc(F)cc2)c(C#N)c(=O)n1C"
  assigned_class: "False"
- compound: "COC(=O)c1nc(-c2ccccc2)oc1S(=O)(=O)N1CCC(C(N)=O)CC1"
  assigned_class: "False"
- compound: "O=C(O)CCCn1c(SCc2c(Cl)cccc2Cl)nc2ccsc2c1=O"
  assigned_class: "False"

IN: Per the records of this test, what outcome belongs to "COc1ccc2nc3cc(Cl)ccc3c(NCCN)c2c1" ?
OUT: True

IN: Which outcome did this test record for the compound O=C1OCC2=C1C(c1cccc(F)c1)c1cc3c(cc1N2CCO)OCO3 (stereo not drawn) ?
OUT: False

IN: Please let me know the test result on file for CC1COCC(C)N1C1=C(Cl)C(=O)c2ccccc2C1=O (stereo not drawn) .
OUT: False

IN: Which outcome was assigned to "C/C(=N\Nc1nc(C)cs1)c1cc2ccccc2o1" in this test?
OUT: False

IN: Look up the recorded call for "COc1ccc(-c2ccc(=O)oc2C#Cc2cc(OC)c(OC)c(OC)c2)cc1O" in this test.
OUT: False

IN: Answer briefly: the call reported for "c1ccc2cc(Cn3c[n+](Cc4ccc5ccccc5c4)c4ccccc43)ccc2c1" in this assay.
OUT: True

IN: Name the outcome recorded for "CCOC(=O)c1c(C)c2c(n1C)CSc1cc(S(=O)(=O)c3ccccc3)c(=O)[nH]c1-2" in the assay.
OUT: False

----------
// growth lookup, one value per entry
# Test system: DU-145 prostate
# experimental_details: NCI-60 one-dose screen, 48 h (100 = growth as untreated, 0 = no growth, -100 = all killed)
# experimental_parameters: 10 µM unless noted
This is part of a sample that, as a whole, favours compounds with a hit. Of some 83,000 tested, about 20% had one in any assay.
Output spec: scalar in %, unitless text.

Worked cases, answers included:
- compound: "Cc1ccc(-c2cc(C(=O)N3N=C(c4ccc(N)cc4)CC3c3ccc(Cl)cc3)c3ccccc3n2)cc1 (centres undefined)"
  growth (%): 18.6
- compound: "Cc1ccc2nc(Cl)c(Cn3nnnc3SCc3ccccc3)cc2c1"
  growth (%): 101
- compound: "Nc1c(C(=O)Nc2ccccn2)sc2nc3c(cc12)C(O)CCC3 (centres undefined)"
  growth (%): 25

Now take the following compound into account.
IN: Could you please provide reported growth for O=C1CC2C=CCN2C=C1NC(=O)C1CCCCC1 (centres undefined) ? Thanks!
OUT: 98.9

Measured values drawn from PubChem BioAssay (NCI) for this set.
